meta.source: patent US20100291106A1

# targetUnderTest: T1, human complement C3b protein (human, UniProt P01024 23-667; P01024 749-1663)
# T1 construct: Purified plasma C3b (Complement Technology, Quidel); Depending on the assay it was captured by an anti-C3d antibody, coated, biotinylated or coupled to beads; also called human C3b; huC3b
# T1 sequence (P01024 23-667 P314L, chain 1 of 2): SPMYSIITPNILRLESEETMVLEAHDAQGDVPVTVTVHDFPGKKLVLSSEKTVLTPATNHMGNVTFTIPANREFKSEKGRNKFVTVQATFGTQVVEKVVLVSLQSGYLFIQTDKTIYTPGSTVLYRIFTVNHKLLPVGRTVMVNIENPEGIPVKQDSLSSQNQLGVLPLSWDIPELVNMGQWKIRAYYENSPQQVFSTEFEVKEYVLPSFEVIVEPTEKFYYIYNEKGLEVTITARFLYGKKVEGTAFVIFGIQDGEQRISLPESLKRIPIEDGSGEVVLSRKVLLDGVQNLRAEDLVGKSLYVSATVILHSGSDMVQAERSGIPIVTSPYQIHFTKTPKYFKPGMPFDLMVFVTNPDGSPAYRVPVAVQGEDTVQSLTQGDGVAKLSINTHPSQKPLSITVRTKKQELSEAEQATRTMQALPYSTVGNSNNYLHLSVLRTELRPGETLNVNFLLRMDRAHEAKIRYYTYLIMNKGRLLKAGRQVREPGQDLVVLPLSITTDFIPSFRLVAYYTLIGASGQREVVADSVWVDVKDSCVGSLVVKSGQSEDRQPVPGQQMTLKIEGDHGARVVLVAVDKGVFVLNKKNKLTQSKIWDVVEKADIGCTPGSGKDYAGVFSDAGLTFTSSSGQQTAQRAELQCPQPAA
# T1 sequence (P01024 749-1663, chain 2 of 2): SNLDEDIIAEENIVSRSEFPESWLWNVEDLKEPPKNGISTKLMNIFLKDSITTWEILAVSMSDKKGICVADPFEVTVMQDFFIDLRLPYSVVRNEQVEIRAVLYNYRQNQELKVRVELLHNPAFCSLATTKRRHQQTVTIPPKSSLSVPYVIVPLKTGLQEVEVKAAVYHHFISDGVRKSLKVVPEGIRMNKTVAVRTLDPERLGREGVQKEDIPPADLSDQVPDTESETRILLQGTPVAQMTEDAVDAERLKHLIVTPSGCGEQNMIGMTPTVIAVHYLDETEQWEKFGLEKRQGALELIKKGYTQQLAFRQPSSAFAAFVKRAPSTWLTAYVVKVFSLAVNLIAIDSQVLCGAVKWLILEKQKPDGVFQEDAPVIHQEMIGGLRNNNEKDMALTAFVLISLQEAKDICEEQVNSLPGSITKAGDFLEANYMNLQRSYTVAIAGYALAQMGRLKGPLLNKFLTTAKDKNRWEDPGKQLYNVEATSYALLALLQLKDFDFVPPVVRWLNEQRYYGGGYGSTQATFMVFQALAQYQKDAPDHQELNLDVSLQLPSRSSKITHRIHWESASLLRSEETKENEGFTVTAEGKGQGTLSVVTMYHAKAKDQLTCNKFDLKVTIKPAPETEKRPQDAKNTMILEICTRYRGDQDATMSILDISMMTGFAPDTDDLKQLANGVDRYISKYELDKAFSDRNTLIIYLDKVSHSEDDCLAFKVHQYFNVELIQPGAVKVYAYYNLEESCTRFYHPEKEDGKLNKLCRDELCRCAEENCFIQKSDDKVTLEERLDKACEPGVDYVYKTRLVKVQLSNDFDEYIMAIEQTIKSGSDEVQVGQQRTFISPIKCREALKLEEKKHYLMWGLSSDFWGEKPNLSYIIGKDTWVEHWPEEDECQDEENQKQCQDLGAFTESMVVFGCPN
# experiment: AlphaScreen bead proximity, C3b-Acceptor beads pre-incubated with antibody, then biotinylated fH and SA-Donor beads; blocked ligand: fH [C]
readoutLabel: IC50 (read off the curve)

Solved cases below.
[
  {
    "binder": "MOR09609 IgG (antibody, V domains shown, Germlined human IgG1 with leucines 234 and 235 changed to alanines, kappa; also called antibody 9609) VH: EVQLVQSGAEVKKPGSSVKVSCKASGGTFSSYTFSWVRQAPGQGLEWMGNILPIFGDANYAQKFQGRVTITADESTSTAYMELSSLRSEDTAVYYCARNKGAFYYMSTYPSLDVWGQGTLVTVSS VL: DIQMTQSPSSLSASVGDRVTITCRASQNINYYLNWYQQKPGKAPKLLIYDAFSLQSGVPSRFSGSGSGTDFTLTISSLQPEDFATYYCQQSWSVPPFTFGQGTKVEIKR",
    "recordedValue": "~0.1 nM"
  },
  {
    "binder": "MOR09611 IgG (antibody, V domains shown, Germlined human IgG1 with leucines 234 and 235 changed to alanines, kappa; also called antibody 9611) VH: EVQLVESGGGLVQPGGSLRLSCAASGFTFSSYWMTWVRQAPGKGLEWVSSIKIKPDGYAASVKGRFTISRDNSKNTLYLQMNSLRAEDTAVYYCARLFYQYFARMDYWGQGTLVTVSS VL: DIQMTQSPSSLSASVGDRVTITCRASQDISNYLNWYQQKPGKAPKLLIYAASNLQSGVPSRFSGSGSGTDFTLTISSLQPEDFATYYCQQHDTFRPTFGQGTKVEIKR",
    "recordedValue": "~0.04 nM"
  }
]

API: the following record is the query input.
Asked: Identify measured IC50 (read off the curve) associated with MOR09675 IgG (antibody, V domains shown, Germlined human IgG1 with leucines 234 and 235 changed to alanines, kappa; also called antibody 9675) VH: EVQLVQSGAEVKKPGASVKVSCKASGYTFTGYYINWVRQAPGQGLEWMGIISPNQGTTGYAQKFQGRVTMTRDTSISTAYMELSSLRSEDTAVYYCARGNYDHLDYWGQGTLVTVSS VL: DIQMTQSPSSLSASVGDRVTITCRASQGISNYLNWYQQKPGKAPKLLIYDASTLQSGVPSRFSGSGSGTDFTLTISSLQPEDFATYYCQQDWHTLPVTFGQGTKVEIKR
Given back: ~0.02 nM
